For each of the molecules below, state its pIC50.
Note on pIC50: it is the negative log10 of concentration, concentration in mol/L.

Asked: Record lookup: for UniProt P11388, what pIC50 belongs to CCCCNCC(O)COc1cc(O)c2c(=O)c3cccc(OC)c3oc2c1 (stereo not drawn) ?
Given back: 4.95

Asked: Record lookup: for UniProt P11388, what pIC50 belongs to CCCCCCNCC(O)COc1cc(O)c2c(=O)c3ccccc3oc2c1 (stereo not drawn) ?
Given back: 4.71

Asked: Record lookup: for UniProt P11388, what pIC50 belongs to CCCCNCC(O)COc1cc(O)c2c(=O)c3ccccc3oc2c1 (stereo not drawn) ?
Given back: 5.05
